# Test system: tetracycline-resistant P. aeruginosa isolate 1419
# method: Checkerboard potentiation assay with tetracycline
# Type: cell-based, Pseudomonas aeruginosa
# measurement.parameters: 25 µg ml-1 TPI; EC50 tetracycline no TPI / with TPI
readout.name: FP* (fold potentiation of tetracycline EC50) (fold)
Give just the numeric value; fold need not be written.

Briefly, FP* (fold potentiation of tetracycline EC50) measured for NCC[C@@H](CN)NC[C@H](Cc1ccccc1)NCCc1ccccc1 : 7

FP* (fold potentiation of tetracycline EC50) reading for CNCCCC[C@@H](CN)NC[C@H](Cc1ccccc1)NCCc1ccccc1 : 5

Recorded FP* (fold potentiation of tetracycline EC50) (compound NCCC[C@H](CN)NC[C@H](Cc1ccccc1)NCCc1ccccc1 ): 8.2

// NCCC[C@@H](CN[C@H](CN)Cc1ccccc1)NCCc1ccccc1 : FP* (fold potentiation of tetracycline EC50) value = 5

CNCCCC[C@H](CN)NC[C@H](Cc1ccccc1)NCCc1ccccc1 yielded FP* (fold potentiation of tetracycline EC50) of 6.8

###

# System: tetracycline-resistant P. aeruginosa isolate 1419
# method: Checkerboard potentiation assay with tetracycline
# Type: cell-based, Pseudomonas aeruginosa
# measurement.parameters: EC50 tetracycline without EPI / with EPI
Residues, ends and D or L forms follow the SMILES beside them. *: point of attachment. βNA = c1ccc2cc(N*)ccc2c1
readout.name: FP* (fold potentiation of tetracycline EC50) (fold)
Report as a plain number; the unit fold is understood.

Kindly note the recorded FP* (fold potentiation of tetracycline EC50) for NC(N)=NCCC[C@H](NC(=O)[C@@H](N)Cc1ccccc1)C(=O)Nc1ccc2ccccc2c1 [PAβN, reference compound] (H-Phe-Arg-βNA) , which is 65.5

Looking up CNCCCC[C@H](CN)NC[C@H](Cc1ccccc1)NCCc1ccccc1 [compound 266] , I see its FP* (fold potentiation of tetracycline EC50) listed as 6.8

Record summary for COC(=O)[C@H]1[C@H]2C[C@@H]3c4[nH]c5cc(OC)ccc5c4CCN3C[C@H]2C[C@@H](OC(=O)c2cc(OC)c(OC)c(OC)c2)[C@@H]1OC [Reserpine, reserpine, reference compound] : reported FP* (fold potentiation of tetracycline EC50) = 11.2

// recorded FP* (fold potentiation of tetracycline EC50) for NCCC[C@H](CN)NC[C@H](Cc1ccccc1)NCCc1ccccc1 [compound 271] : 8.2

For this compound ( NCC[C@@H](CN)NC[C@H](Cc1ccccc1)NCCc1ccccc1 [compound 250] ), measured FP* (fold potentiation of tetracycline EC50) is 7.0

###

Kindly state recovery at 48 h, 25 μg mL^-1 for each of the entries shown.
# method: MTT cytotoxicity assay
# Format: cell-based
# measurement.parameters: human, Hek293T human embryonic kidney epithelial cells; 25 μg mL^-1, 48 h, vs solvent only controls; read-out: percent recovery (cell viability)
Residues, ends and D or L forms follow the SMILES beside them. *: point of attachment. βNA = c1ccc2cc(N*)ccc2c1
Just the number please, in %, no unit attached.

Recorded result, CNCCCC[C@H](CN)NC[C@H](Cc1ccccc1)NCCc1ccccc1 , recovery at 48 h, 25 μg mL^-1: 72

Please fill in: recovery at 48 h, 25 μg mL^-1 reported for CNCCCC[C@@H](CN)NC[C@H](Cc1ccccc1)NCCc1ccccc1 = 84

Please fill in: recovery at 48 h, 25 μg mL^-1 reported for NCCC[C@H](CN)NC[C@H](Cc1ccccc1)NCCc1ccccc1 = 75

Item: N=C(N)NCCC[C@H](NC(=O)[C@@H](N)Cc1ccccc1)C(=O)Nc1ccc2ccccc2c1 [PAβN, reference compound] (H-Phe-Arg-βNA) | recovery at 48 h, 25 μg mL^-1: 63

###

# method: MTT cytotoxicity assay
# Format: cell-based
# measurement.parameters: human, HepG2 human liver carcinoma cells; 25 μg mL^-1, 48 h; read-out: percent recovery (cell viability)
Residues, ends and D or L forms follow the SMILES beside them. *: point of attachment. βNA = c1ccc2cc(N*)ccc2c1
readout.name: recovery at 48 h, 25 μg mL^-1 (%)
Numbers only here, please. The scale is %.

// recovery at 48 h, 25 μg mL^-1 lookup, compound = NCCC[C@@H](CN[C@H](CN)Cc1ccccc1)NCCc1ccccc1 , result: 77

Sure, the documented recovery at 48 h, 25 μg mL^-1 for NCCC[C@H](CN)NC[C@H](Cc1ccccc1)NCCc1ccccc1 is 74

The value of recovery at 48 h, 25 μg mL^-1 measured for the compound NCC[C@@H](CN)NC[C@H](Cc1ccccc1)NCCc1ccccc1 turned out to be 80

The reported recovery at 48 h, 25 μg mL^-1 of the compound N=C(N)NCCC[C@H](NC(=O)[C@@H](N)Cc1ccccc1)C(=O)Nc1ccc2ccccc2c1 [PAβN, reference compound] (H-Phe-Arg-βNA) was 68

###

# Tested on: tetracycline-resistant P. aeruginosa isolate 1419
# method: Checkerboard potentiation assay with tetracycline
# Assay type: cell-based, Pseudomonas aeruginosa
# measurement.parameters: Pseudomonas aeruginosa, no polyamine; average across replicates; read-out: tetracycline alone EC50
readout.name: pEC50
As a rule, pEC50 stands for the negative log10 of the concentration, concentration in M.

CN(C)[C@@H]1C(O)=C(C(N)=O)C(=O)[C@@]2(O)C(O)=C3C(=O)c4c(O)cccc4[C@@](C)(O)[C@H]3C[C@@H]12 yielded pEC50 of 4.32
